Source: ChEMBL document CHEMBL1133482

# protocol description: Aqueous solubility at pH 7.5
# Assay type: physicochemical
Rule: solubility of 20 µg/mL or more gives TRUE; anything lower gives FALSE.

1) CC(C)(C)c1cc(NC(=O)Nc2cccc(Cl)c2Cl)n(-c2ccc([N+](=O)[O-])cc2)n1
TRUE
2) COc1cccc(-n2nc(C(C)(C)C)cc2NC(=O)Nc2cccc(Cl)c2Cl)c1
TRUE
3) CC(C)(C)c1cc(NC(=O)Nc2cccc(Cl)c2Cl)n(-c2ccccc2)n1
TRUE
4) CC(C)(C)c1cc(NC(=O)Nc2cccc(Cl)c2Cl)n(-c2cccc([N+](=O)[O-])c2)n1
FALSE
5) CC(C)(C)c1cc(NC(=O)Nc2cccc(Cl)c2Cl)n(-c2cccc(F)c2)n1
FALSE
6) CC(C)(C)c1cc(NC(=O)Nc2cccc(Cl)c2Cl)n(-c2ccc(S(C)(=O)=O)cc2)n1
TRUE
7) CC(C)(C)c1cc(NC(=O)Nc2cccc(Cl)c2Cl)n(-c2cccc(N)c2)n1
TRUE
